I'd appreciate it if you could supply pIC50 values for the items below.
# TARGET OR TEST SYSTEM: Son of sevenless homolog 1 [564-1049]/GTPase KRas [G12C] (UniProt P01116+Q07889, G12C)
# Construct: 564-1049
# Sequence (P01116 whole entry G12C): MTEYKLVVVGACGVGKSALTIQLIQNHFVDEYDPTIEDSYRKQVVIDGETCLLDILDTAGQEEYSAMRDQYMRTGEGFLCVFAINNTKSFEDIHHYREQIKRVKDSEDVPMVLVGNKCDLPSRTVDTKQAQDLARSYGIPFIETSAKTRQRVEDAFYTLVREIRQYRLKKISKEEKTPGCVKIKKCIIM
# Sequence (Q07889 564-1049): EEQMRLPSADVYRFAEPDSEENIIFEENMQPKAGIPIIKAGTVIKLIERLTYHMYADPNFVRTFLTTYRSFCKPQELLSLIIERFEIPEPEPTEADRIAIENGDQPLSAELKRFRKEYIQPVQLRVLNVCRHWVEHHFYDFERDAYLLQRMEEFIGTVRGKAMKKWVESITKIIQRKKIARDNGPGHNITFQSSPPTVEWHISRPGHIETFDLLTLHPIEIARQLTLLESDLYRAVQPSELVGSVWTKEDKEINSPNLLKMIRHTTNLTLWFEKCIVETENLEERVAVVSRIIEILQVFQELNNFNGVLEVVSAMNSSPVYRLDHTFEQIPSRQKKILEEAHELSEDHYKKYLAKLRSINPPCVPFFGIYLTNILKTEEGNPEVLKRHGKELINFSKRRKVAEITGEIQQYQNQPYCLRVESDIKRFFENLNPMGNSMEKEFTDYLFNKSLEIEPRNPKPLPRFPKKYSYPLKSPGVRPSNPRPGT
# ASSAY PROCEDURE: Evaluation of Inhibitory Activity of Compounds on KRAS G12C Nucleotide (GDP-GTP) Exchange Reaction
# Experimental: The inhibitory activity of compounds on exchange reaction of GDP into GppNHp in Bodipy (trademark) FL-bound KRAS G12C was examined by fluorescence measurement using human recombinant KRAS G12C and SOS1 proteins.For the preparation of KRAS G12C to which Bodipy FL GDP was bound, first, […] KRAS G12C (amino acid region: 1-169) and 1 mM Bodipy FL GDP (Invitrogen, G22360) were incubated for 1 hour in a buffer (20 mM Tris-HCl (pH 7.5), 50 mM NaCl, 1 mM DTT) in ice in the presence of 2.5 mM EDTA. […]
Give bare numbers, as −log10 of the molar value.

Q: // fetch Son of sevenless homolog 1 [564-1049]/GTPase KRas [G12C] (UniProt P01116+Q07889, G12C) pIC50 for C=CC(=O)N1CC(NC(=O)c2c(C)c(CNc3n[nH]c4cc(Cl)c(C(C)(C)C)cc34)nn2C)C1
Result: 6.89

Q: Now this one: C=CC(=O)N1CC(NC(=O)c2c(C)nc(CNc3n[nH]c4cc(Cl)c(C(C)(C)C)cc34)n2Cc2ccccc2)C1
Result: 7.08

Q: Now this one: C=CC(=O)N1C[C@@H](COC)[C@@H](NC(=O)c2c(C)nc(CNc3n[nH]c4cc(Cl)c(C(C)(C)C)cc34)n2C)C1
Result: 7.62

Q: Now this one: C=CC(=O)N1C[C@@H](CF)[C@@H](NC(=O)c2c(C)nc(CNc3n[nH]c4cc(Cl)c(C(C)(C)C)cc34)n2C)C1
Result: 7.70

Q: Now this one: C=CC(=O)N1CC(NC(=O)c2c(C)nc(CNc3n[nH]c4cc(Cl)c(C(C)(C)C)cc34)n2C(C)(C)C)C1
Result: 7.46

Here are 2 compounds. What values of pIC50 were reported for them?
1. C=CC(=O)N1CC(NC(=O)c2c(C)nc(CNc3n[nH]c4cc(C)c(C(C)(C)C)cc34)n2C)C1
2. C=CC(=O)N1CC(NC(=O)c2c(C)nc(CNc3n[nH]c4cc(Cl)c(C(C)(C)C)cc34)n2C(F)F)C1

Result:
[7.85, 7.24]
